This section presents compounds with their documented MIC values.
system: Mycobacterium tuberculosis; experiment: Antimycobacterial activity against Mycobacterium tuberculosis H37Rv after 10 days by micro broth dilution method; type: functional; settings: 240 h
# output: bare number, implied unit µg/mL

Below: 8 compounds and their reported MIC.
O=C(O)CCCNc1ncnc2[nH]cnc12: 12.5
COC(=O)[C@H](CC(C)C)NC(=O)CNc1ncnc2[nH]cnc12: 12.5
CC(=O)Nc1nc(NCC(=O)O)c2nc[nH]c2n1: 0.7
Nc1nc(N2CCC[C@H]2C(=O)O)c2nc[nH]c2n1: 12.5
CC(=O)Nc1nc(N[C@@H](Cc2ccccc2)C(=O)OC(C)(C)C)c2nc[nH]c2n1: 12.5
COC(=O)[C@H](CCSC)NC(=O)CNc1ncnc2[nH]cnc12: 12.5
O=C(O)CCCCCNc1ncnc2[nH]cnc12: 12.5
C[C@H](NC(=O)CNc1ncnc2[nH]cnc12)C(=O)O.O: 12.5

Exercise: Fill in: MIC on Mycobacterium tuberculosis, entry O=C(O)CNc1ncnc2[nH]cnc12
Key: 6.25

Exercise: Fill in: MIC on Mycobacterium tuberculosis, entry COC(=O)CC[C@H](NC(=O)CNc1nc(NC(C)=O)nc2[nH]cnc12)C(=O)OC
Key: 12.5

Exercise: Fill in: MIC on Mycobacterium tuberculosis, entry O.O=C(CNc1ncnc2[nH]cnc12)N[C@@H](Cc1ccccc1)C(=O)O
Key: 3.1

Where do these numbers come from? They come from ChEMBL document CHEMBL3804804.
